MIC grade, A. FLAVUS, RPMI media listing for selected molecules.
# System: A. flavus
# PROTOCOL SUMMARY: Minimum inhibitory concentration, RPMI medium
# Format: cell-based
# STUDY CONDITIONS: banded MIC grade
OBSERVATION TYPE: MIC grade, A. FLAVUS, RPMI media

[[record]]
structure_notation = "NC1=NN=C(CCCCOCc2cc(F)ccc2F)CS1"
system_tested = "A. flavus"
result_value = "2 (2: 5-20 mg/L)"

[[record]]
structure_notation = "NC1=NN=C(CCCCOCc2ccc(Cl)c(F)c2)CS1"
system_tested = "A. flavus"
result_value = "4 (4: <1 mg/L)"

[[record]]
structure_notation = "NC1=NN=C(CCCCOCc2ccccc2C2CC2)CS1"
system_tested = "A. flavus"
result_value = "1 (1: ≥20 mg/L)"

[[record]]
structure_notation = "NC1=NN=C(CCCCOCc2cccc(C(F)(F)F)c2)CS1"
system_tested = "A. flavus"
result_value = "2 (2: 5-20 mg/L)"

[[record]]
structure_notation = "NC1=NN=C(CCCCSCc2ccc(Cl)cc2)CS1"
system_tested = "A. flavus"
result_value = "3 (3: 1-5 mg/L)"

[[record]]
structure_notation = "NC1=NN=C(CCCCOCc2ccc(C(F)(F)F)cc2)CS1"
system_tested = "A. flavus"
result_value = "3 (3: 1-5 mg/L)"

[[record]]
structure_notation = "NC1=NN=C(CCCCOCc2ccc(Cl)cc2)CS1"
system_tested = "A. flavus"
result_value = "4 (4: <1 mg/L)"

[[record]]
structure_notation = "NC1=NN=C(CCCCOCc2cccc(-c3ccccc3)c2)CS1"
system_tested = "A. flavus"
result_value = "2 (2: 5-20 mg/L)"

[[record]]
structure_notation = "CCc1ccc(OCCCCC2=NN=C(N)SC2)cc1"
system_tested = "A. flavus"
result_value = "2 (2: 5-20 mg/L)"

[[record]]
structure_notation = "NC1=NN=C(CCCCOCc2ccc(Cl)cc2Cl)CS1"
system_tested = "A. flavus"
result_value = "2 (2: 5-20 mg/L)"

[[record]]
structure_notation = "CCc1cccc(COCCCCC2=NN=C(N)SC2)c1"
system_tested = "A. flavus"
result_value = "3 (3: 1-5 mg/L)"

[[record]]
structure_notation = "NC1=NN=C(CCCCOCCc2ccccc2)CS1"
system_tested = "A. flavus"
result_value = "3 (3: 1-5 mg/L)"

[[record]]
structure_notation = "Cc1cccc(COCCCCC2=NN=C(N)SC2)c1"
system_tested = "A. flavus"
result_value = "3 (3: 1-5 mg/L)"

[[record]]
structure_notation = "NC1=NN=C(CCCCOCCCc2ccc(F)cc2F)CS1"
system_tested = "A. flavus"
result_value = "3 (3: 1-5 mg/L)"

[[record]]
structure_notation = "NC1=NN=C(CCCCOCc2ccc(F)cc2)CS1"
system_tested = "A. flavus"
result_value = "1 (1: ≥20 mg/L)"

[[record]]
structure_notation = "NC1=NN=C(CCCCOCc2cccc(Oc3ccccc3)c2)CS1"
system_tested = "A. flavus"
result_value = "1 (1: ≥20 mg/L)"

[[record]]
structure_notation = "Cc1cc(COCCCCC2=NN=C(N)SC2)ccc1F"
system_tested = "A. flavus"
result_value = "4 (4: <1 mg/L)"

[[record]]
structure_notation = "CCCCc1cccc(COCCCCC2=NN=C(N)SC2)c1"
system_tested = "A. flavus"
result_value = "2 (2: 5-20 mg/L)"

[[record]]
structure_notation = "NC1=NN=C(CCCCOCc2cc(F)cc(F)c2)CS1"
system_tested = "A. flavus"
result_value = "3 (3: 1-5 mg/L)"

[[record]]
structure_notation = "NC1=NN=C(CCCCOCc2cccc(Br)c2)CS1"
system_tested = "A. flavus"
result_value = "4 (4: <1 mg/L)"

[[record]]
structure_notation = "NC1=NN=C(CCCCOCc2c(F)cccc2Cl)CS1"
system_tested = "A. flavus"
result_value = "2 (2: 5-20 mg/L)"

[[record]]
structure_notation = "NC1=NN=C(CCCCOCc2ccccc2C(F)(F)F)CS1"
system_tested = "A. flavus"
result_value = "1 (1: ≥20 mg/L)"

[[record]]
structure_notation = "NC1=NN=C(CCCCOCc2cccc(C3CC3)c2)CS1"
system_tested = "A. flavus"
result_value = "2 (2: 5-20 mg/L)"

[[record]]
structure_notation = "COc1ccc(COCCCCC2=NN=C(N)SC2)cc1"
system_tested = "A. flavus"
result_value = "1 (1: ≥20 mg/L)"

[[record]]
structure_notation = "NC1=NN=C(CCCCOCc2ccc(Br)cc2)CS1"
system_tested = "A. flavus"
result_value = "4 (4: <1 mg/L)"

[[record]]
structure_notation = "NC1=NN=C(CCCCOCc2cccc(Cl)c2)CS1"
system_tested = "A. flavus"
result_value = "4 (4: <1 mg/L)"

[[record]]
structure_notation = "NC1=NN=C(CCCCOCc2ccc(Cl)cc2F)CS1"
system_tested = "A. flavus"
result_value = "4 (4: <1 mg/L)"


Every entry's value here was drawn from patent US20180201592A1.
